The values you see were collected from ChEMBL document CHEMBL4304758.

Listed here: items and their measured inhibition.
- SYSTEM_UNDER_TEST: NAD-dependent protein deacetylase sirtuin-3, mitochondrial (Homo sapiens)
- EXPERIMENT: Inhibition of recombinant human SIRT3 (118 to 399 residues) demyristoylase activity expressed in Escherichia coli at 1 uM using p53(Myr)-AMC as substrate measured after 3 hrs in presence of NAD+ and trypsin by fluorescence assay relative to control
Residues, ends and D or L forms follow the SMILES beside them. *: point of attachment. X3 = CN(C)c1ccc(/N=N/c2ccc(CCC(=O)*)cc2)cc1; X2 = CN(C)c1ccc(/N=N/c2ccc(C(=O)*)cc2)cc1
MEASURE_NAME: inhibition (%)

MOLECULE	SYSTEM_UNDER_TEST	MEASURE_NAME	READOUT_VALUE
CC[C@H](C)[C@H](NC(=O)[C@H](CCCNC(=N)N)NC(C)=O)C(=O)N[C@@H](CCCCNC(=O)CCc1ccc(/N=N/c2ccc(N(C)C)cc2)cc1)C(=O)N[C@@H](CCCNC(=N)N)C(=O)N[C@@H](Cc1ccc(O)cc1)C(N)=O (Ac-RIK(X3)RY-NH2)	NAD-dependent protein deacetylase sirtuin-3, mitochondrial (Homo sapiens)	inhibition	11
CC[C@H](C)[C@H](NC(=O)[C@H](CCCNC(=N)N)NC(C)=O)C(=O)N[C@@H](CCCCNC(=O)c1ccc(/N=N/c2ccc(N(C)C)cc2)cc1)C(=O)N[C@@H](CCCNC(=N)N)C(=O)N[C@@H](Cc1ccc(O)cc1)C(N)=O (Ac-RIK(X2)RY-NH2)	NAD-dependent protein deacetylase sirtuin-3, mitochondrial (Homo sapiens)	inhibition	34

====

Listed here: items and their measured inhibition.
- SYSTEM_UNDER_TEST: NAD-dependent protein deacetylase sirtuin-3, mitochondrial (Homo sapiens) (UniProt Q9NTG7)
- Sequence (whole entry): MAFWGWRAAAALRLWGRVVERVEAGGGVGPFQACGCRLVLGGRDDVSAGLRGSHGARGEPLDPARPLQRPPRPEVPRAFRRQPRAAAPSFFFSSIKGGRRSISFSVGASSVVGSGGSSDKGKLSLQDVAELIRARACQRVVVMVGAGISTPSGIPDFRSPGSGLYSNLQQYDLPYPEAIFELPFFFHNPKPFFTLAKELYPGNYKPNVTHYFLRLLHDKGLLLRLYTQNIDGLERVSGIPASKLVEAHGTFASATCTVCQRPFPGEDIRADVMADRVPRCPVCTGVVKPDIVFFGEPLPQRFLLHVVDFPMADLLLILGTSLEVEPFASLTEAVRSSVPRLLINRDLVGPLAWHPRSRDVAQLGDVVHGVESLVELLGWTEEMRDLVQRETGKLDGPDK
- EXPERIMENT: Inhibition of recombinant human SIRT3 (118 to 399 residues) defatty-acylase activity expressed in Escherichia coli at 2 uM using SFP3 as substrate measured at 5 mins interval for 60 mins in presence of NAD+ by fluorescence assay relative to control
Residues, ends and D or L forms follow the SMILES beside them. *: point of attachment. Phenylacetyl(4-E-phenylazo) = O=C(Cc1ccc(/N=N/c2ccccc2)cc1)*; X2 = CN(C)c1ccc(/N=N/c2ccc(C(=O)*)cc2)cc1
MEASURE_NAME: inhibition (%)

COMPOUND	MEASURE_NAME	READOUT_VALUE
CCCCCCCCCCCCCC(=S)NCCCC[C@H](NC(=O)OCc1ccccc1)C(=O)Nc1ccccc1	inhibition	-0.9
C[C@H](NC(=O)[C@H](CCCCNC(=O)Cc1ccc(/N=N/c2ccc(OCCc3ccccc3)cc2)cc1)NC(=O)OCc1ccccc1)C(N)=O	inhibition	7
CC[C@H](C)[C@H](NC(=O)[C@@H](NC(=O)[C@H](CCCCNC(=O)c1ccc(/N=N/c2ccc(N(C)C)cc2)cc1)NC(=O)[C@H](CC(=O)O)NC(=O)[C@H](CO)NC(C)=O)[C@@H](C)O)C(N)=O (Ac-SDK(X2)TI-NH2)	inhibition	10
C[C@H](NC(=O)[C@H](CCCCNC(=O)Cc1ccc(/N=N/c2ccc(OCc3ccccc3)cc2)cc1)NC(=O)OCc1ccccc1)C(N)=O	inhibition	-0.08
C[C@H](NC(=O)[C@H](CCCCNC(=O)Cc1ccc(/N=N/c2ccc(O)cc2)cc1)NC(=O)OCc1ccccc1)C(N)=O	inhibition	5.9
CC[C@H](C)[C@H](NC(=O)[C@@H](NC(=O)[C@H](CCCCNC(=O)Cc1ccc(/N=N/c2ccccc2)cc1)NC(=O)[C@H](CC(=O)O)NC(=O)[C@H](CO)NC(C)=O)[C@@H](C)O)C(N)=O (Ac-SDK(Phenylacetyl(4-E-phenylazo))TI-NH2)	inhibition	14
CCCCCCCCCCCCCC(=O)NCCCC[C@H](NC(=O)OCc1ccccc1)C(=O)Nc1ccccc1	inhibition	-2.3
